B1: CPEB3 Ribozyme (parent)
chain: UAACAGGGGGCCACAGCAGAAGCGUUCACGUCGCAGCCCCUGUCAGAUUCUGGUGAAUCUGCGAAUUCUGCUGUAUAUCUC

- Variants of: B1
- assay.name: self-cleavage, relative activity (ratio to wild type); higher = more cleavage; in vitro, sequencing
// classify(record): look up self-cleavage in ranges range 1: < 0.2; range 2: ≥ 0.2 and < 0.7; range 3: ≥ 0.7

Example entries begin here.
UAACAGGGGGCCACAGCAGAAGCGUUCACGUCGCAGCCCCUGUCAGAUUCUGGUGAAUCUGCGUAUUCUGCUGAAUAUCUC = range 2
UAACAGGGGGCCACAGCAGAAGCGUUCACGACGCAGCCCCUGUCAGAUUCUGGCGAAUCUGCGAAUUCUGCUGUAUAUCUC = range 2
UAACAGGGGGCCACAGCAGAAGCAUUCACGUCGCAGCCCCUGUCAGAUACUGGUGAAUCUGCGAAUUCUGCUGUAUAUCUC = range 2
UAACAGGGGGCCACAGCAGAAGCGUUCAUGUCGCAGCCCCUGUCAGAUCCUGGUGAAUCUGCGAAUUCUGCUGUAUAUCUC = range 2
UAACAGGGGGCCACAGCAGAAGCGUUCACGUCGCAGCCCCUGUCAGAUUCUUGUGAAUCUGCGAAUUCUGCGGUAUAUCUC = range 3
UAACAGGGGGCCACAGCUGAAGCGUUCACGUCGCAGCCCCUGUCAGAUUCUGGUGAUUCUGCGAAUUCUGCUGUAUAUCUC = range 2

Query: Band for the recorded self-cleavage of UAACAGGGGGCCACAGCGGAAGCGUUCACGUCGCAGCCCCUGUCAGAAUCUGGUGAAUCUGCGAAUUCUGCUGUAUAUCUC ?
Result: range 1

Query: Band for the recorded self-cleavage of CAACAGGGGGCCACAGCAGAAGCGUUCACGUCGCAGCCCCUGUCCGAUUCUGGUGAAUCUGCGAAUUCUGCUGUAUAUCUC ?
Result: range 1

Query: Band for the recorded self-cleavage of UUACAGGGGGCCACAGCAGAAGCGUUCACGUCGCAGCCCCUGUAAGAUUCUGGUGAAUCUGCGAAUUCUGCUGUAUAUCUC ?
Result: range 2

Query: Band for the recorded self-cleavage of UAACAGGGGGCCACAGCAGUAGCGUUCACGUAGCAGCCCCUGUCAGAUUCUGGUGAAUCUGCGAAUUCUGCUGUAUAUCUC ?
Result: range 1

Query: Band for the recorded self-cleavage of UAGCAGGGGGCCACAGCAGAAGCGUUCACGUCGCAGCCCCUGUCAGAUUCUGGUGAAUCCGCGAAUUCUGCUGUAUAUCUC ?
Result: range 2

Query: Band for the recorded self-cleavage of UAACAGGGGGCCACAGCAGAAGCGCUCACGUCGCAGCCCCUGUCAGAUUCUGGUGAAUCUACGAAUUCUGCUGUAUAUCUC ?
Result: range 1

Query: Band for the recorded self-cleavage of UAACAGGGGGCCACAGCAGAAGCGUCCACGUUGCAGCCCCUGUCAGAUUCUGGUGAAUCUGCGAAUUCUGCUGUAUAUCUC ?
Result: range 1

Query: Band for the recorded self-cleavage of UAACAGGGGGCCACAGCAGAAGCGUACACGUCGCAGCCCCUGUCAGAUUCUGGUGAAUCUGCGAAUUCUGCUGUAUAUAUC ?
Result: range 3

Query: Band for the recorded self-cleavage of UAACAGGGGGCCACAGCAGAAGCGUUCACGUCGCGGCCCCUGUCAGAUUCUGGUGAAUCUGCGAAGUCUGCUGUAUAUCUC ?
Result: range 3
